assay_name: Apparent (non-equilibrium) solubilities of Form C in various solvents
Format: physicochemical
experimental_context: organic solvent or mixture, thermodynamic from solid; apparent, 2-Propanol
reported_metric: solubility

molecule	result
NC(=O)c1ccc(N(C(N)=O)c2c(F)cccc2F)nc1-c1ccc(F)cc1F [Form C]	50 mg/mL

###

assay_name: Apparent (non-equilibrium) solubilities of Form C in various solvents
Format: physicochemical
experimental_context: organic solvent or mixture, thermodynamic from solid; apparent, DMSO

molecule	solubility / mg/mL
NC(=O)c1ccc(N(C(N)=O)c2c(F)cccc2F)nc1-c1ccc(F)cc1F [Form C]	100

###

assay_name: Apparent (non-equilibrium) solubilities of Form C in various solvents
Type: physicochemical
experimental_context: organic solvent or mixture, thermodynamic from solid; apparent, cyclohexane
reported_metric: solubility

compound	result
NC(=O)c1ccc(N(C(N)=O)c2c(F)cccc2F)nc1-c1ccc(F)cc1F [Form C]	< 20 mg/mL

The measured values listed here are drawn from patent US20110086891A1.
